test system: TRPC4 (transient receptor potential cation channel C4 beta), mouse; assay: potentiation of DAMGO EC20 TRPC4 response – cell-based, second round, Fluo-4, HEK293 TRPC4beta/mu-opioid, 1 µM, confirmation (AID 2554); conditions: DAMGO EC20, Fluo-4 calcium flux, at 1 µM
The source made the active and inactive calls.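 How the source made its calls: active means primary screen hit whose fluorescence ratio, in both repeats, exceeds the weak agonist control mean by 3 SD; inactive means the rest.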
Your reply should match one of these outcome classes. t for active, f for inactive

CCCCCc1ccc(OCCCC[n+]2ccccc2)c(CCCCC)c1 ... f
CN(C)C(CNC(=O)NC1CCCCC1)c1cccnc1 (centres undefined) ... f
COc1ccc(C(CNC(=O)c2oc3ccc(Cl)cc3c2C)N2CCCCC2)cc1 (centres undefined) ... f

Hi team, can someone confirm the assay call for Cc1ccc(OCc2cc(C(=O)N(C)CCc3nc4ccccc4[nH]3)no2)cc1C ? f

Check CN(C)CCCn1c(=O)n(CCc2ccccc2)c(=O)c2c3c(sc21)CCCCC3 too. f

Check COc1ccc(-c2nn(-c3ccccc3C)cc2CNCc2cccnc2)cc1F too. f

Check O=C(CN1CCCC1)N1c2ccccc2Sc2ccc(C(F)(F)F)cc21 too. f

====

biological target: Short transient receptor potential channel 6 (Mus musculus) (UniProt Q61143); test: TRPC6 blockade by TRPC4 inhibitor hits – cell-based, HEK293, membrane potential dye, duplicate, selectivity assay for TRPC4 inhibitor project, confirmation (AID 434948); settings: HEK293 TRPC6, membrane potential dye fluorescence, at 10 µM, stimulated with maximal-effect acetylcholine
Sequence (Q61143 whole entry, looked up): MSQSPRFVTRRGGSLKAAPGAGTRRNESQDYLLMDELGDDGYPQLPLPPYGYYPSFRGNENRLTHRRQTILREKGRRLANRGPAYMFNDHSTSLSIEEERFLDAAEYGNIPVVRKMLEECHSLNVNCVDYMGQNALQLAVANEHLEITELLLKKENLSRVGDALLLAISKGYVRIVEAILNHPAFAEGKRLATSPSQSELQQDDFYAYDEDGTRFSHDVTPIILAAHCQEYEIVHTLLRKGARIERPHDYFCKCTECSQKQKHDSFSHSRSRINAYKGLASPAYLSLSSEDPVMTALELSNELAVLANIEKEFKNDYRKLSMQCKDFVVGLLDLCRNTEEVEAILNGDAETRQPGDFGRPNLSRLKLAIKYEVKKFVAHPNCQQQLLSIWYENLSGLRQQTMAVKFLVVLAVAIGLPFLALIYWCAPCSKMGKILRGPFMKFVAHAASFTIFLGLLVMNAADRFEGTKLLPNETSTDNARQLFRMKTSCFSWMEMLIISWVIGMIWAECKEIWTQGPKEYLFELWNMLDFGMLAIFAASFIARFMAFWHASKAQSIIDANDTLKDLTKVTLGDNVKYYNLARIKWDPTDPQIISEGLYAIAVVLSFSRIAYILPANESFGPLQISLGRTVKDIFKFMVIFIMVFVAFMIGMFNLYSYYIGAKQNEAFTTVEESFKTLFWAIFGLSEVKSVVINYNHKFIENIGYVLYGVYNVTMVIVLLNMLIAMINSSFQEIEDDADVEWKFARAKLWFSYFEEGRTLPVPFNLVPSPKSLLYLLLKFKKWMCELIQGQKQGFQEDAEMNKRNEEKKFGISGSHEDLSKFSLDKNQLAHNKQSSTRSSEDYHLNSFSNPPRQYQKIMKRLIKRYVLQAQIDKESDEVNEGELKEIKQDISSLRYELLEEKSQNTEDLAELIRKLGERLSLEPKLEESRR
Activity calls are given as the source filed them.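 The calls were made as follows: active = active in primary screen and both duplicates, each dropping signal beyond three positive-control SD with fluorescence still positive; inactive = the rest.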
Your reply should match one of these outcome classes. active, inactive

Solved entries (count: 6):
O=C(Nc1ccc([N+](=O)[O-])cn1)C1CCCCC1 ... inactive
CC[C@@H](C)[C@H](CNC)NC[C@@H](Cc1cccc2ccccc12)NCCc1cccc(C(F)(F)F)c1 ... inactive
Cc1cc(Nc2ccc3c(c2)OCCO3)c2cc(Cl)ccc2n1 ... inactive
CC(C)(C)NCc1ccccc1OCc1cccs1 ... active
CCc1ccc(-c2nn(-c3ccccc3)cc2CSC(=N)N)cc1 ... inactive
COc1ccc(C(CNC(=O)c2cccc(NS(=O)(=O)c3ccc(Br)cc3)c2)N(C)C)cc1 (stereo not given) ... inactive

In the following, a different compound is considered.
Hi team, can someone confirm the assay call for CN(C)C(CNC(=O)c1ccccc1OCc1ccc(Cl)cc1)c1ccco1 (stereo not given) ? inactive

====

system: TRPC4 beta (transient receptor potential cation channel C4), mouse; experiment: potentiation of DAMGO EC20 TRPC4 response – cell-based, Fluo-4, HEK293 TRPC4beta/mu-opioid, confirmation (AID 2555); settings: DAMGO EC20, Fluo-4 calcium flux, at 10 µM
The source made the active and inactive calls.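 Rule for the calls: active = primary screen hit whose calcium fluorescence ratio, in both repeats, exceeds the weak agonist control mean by 3 SD; inactive = the rest.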
Your reply should match one of these outcome classes. active, inactive

Solved entries (count: 5):
COc1ccc(O)c(C(=O)c2cnc3c(c2)c(=O)[nH]c(=O)n3C)c1 ... inactive
CCOC(=O)c1c(NC(=O)C2CC(Cl)=CCC2C(=O)O)sc2c1CCCCC2 (stereo not drawn) ... inactive
N/C(Cc1cccc2ccccc12)=N\OC(=O)c1cccs1 ... inactive
Cc1ccc2cc(CN(CCN3CCOCC3)C(=O)NCc3ccccc3)c(=O)[nH]c2c1C ... inactive
Cc1nn2c(N3CCN(C)CC3)c3c(nc2c1-c1ccccc1)CCCC3 ... inactive

Hi team, can someone confirm the assay call for CCOC(=O)C1NN=C(C(=O)c2ccccc2)C1c1ccc(Cl)cc1 (stereo not drawn) ? inactive

Check O=C(O)c1ccc(-c2ccc(/C=N/Nc3ccc([N+](=O)[O-])cc3)o2)cc1 too. active

Check Cc1ccc(NC(=O)CNCC(c2ccccc2)N(C)C)cc1F (stereo not drawn) too. inactive

Check Cc1cccn2c(=O)c3cc(C(=O)N(C)C)n(C)c3nc12 too. active

Check CCOC(=O)CSc1nc2ccccc2c(=O)n1C1CCCC1 too. inactive

Check NC(=O)NCCN1CCN(c2ncc(C(F)(F)F)cc2Cl)CC1 too. active
